- Tested on: human Factor 7 mRNA
- Assay Details: Antisense inhibition of human Factor 7 mRNA in HepB3 cells, 50 nM antisense oligonucleotide, lipofectin
- Assay type: cell-based
- Experimental Context: Table 1, 50 nM, lipofectin, approximately 24 hours, relative to untreated control cells
Strand notation (5' to 3'): a small letter for the sugar, then the base; units joined by * are phosphorothioate-linked, units joined directly phosphodiester-linked; [ ] holds rarer units or linkages, { } end groups; capitals alone tell only the bases. e = 2'-O-(2-methoxyethyl) (MOE); [5mC] = 5-methylcytosine; d = 2'-deoxy (DNA)
Record form. Attribute: % Inhibition. Fill in for each entry.
State just the number; it will be interpreted in %.

Note to self: % Inhibition recorded for 407942 (antisense e[5mC]*eA*e[5mC]*eA*eG*dG*dT*dG*dT*dG*d[5mC]*dG*dG*dA*dG*eG*eA*eG*eA*e[5mC]) [compound 407942] was 41

Note to self: % Inhibition recorded for 407962 (antisense eT*eT*eG*eG*eA*dA*dG*d[5mC]*dA*dG*d[5mC]*d[5mC]*d[5mC]*dA*d[5mC]*eG*eG*e[5mC]*eT*eG) [compound 407962] was 41

Note to self: % Inhibition recorded for 407655 (antisense eA*eG*eA*eG*eT*dG*d[5mC]*dA*dG*d[5mC]*dT*dT*dG*d[5mC]*d[5mC]*eA*eG*eG*eT*e[5mC]) [compound 407655] was 28

Note to self: % Inhibition recorded for 407622 (antisense eT*e[5mC]*eA*e[5mC]*e[5mC]*dA*dA*d[5mC]*dA*dA*d[5mC]*dA*dG*dG*dA*e[5mC]*e[5mC]*eT*eG*e[5mC]) [compound 407622] was 55

Note to self: % Inhibition recorded for 407660 (antisense eG*e[5mC]*eT*e[5mC]*eT*dG*dA*dA*dG*dT*dA*dG*dA*dT*dG*eA*eT*eG*e[5mC]*e[5mC]) [compound 407660] was 16

Note to self: % Inhibition recorded for 407627 (antisense eG*e[5mC]*e[5mC]*e[5mC]*eA*dG*d[5mC]*dA*d[5mC]*d[5mC]*dG*d[5mC]*dG*dA*dT*e[5mC]*eA*eG*eG*eT) [compound 407627] was 79

Note to self: % Inhibition recorded for 407898 (antisense e[5mC]*e[5mC]*eA*eG*e[5mC]*dA*dG*dA*dG*dA*dG*dT*dA*d[5mC]*d[5mC]*e[5mC]*e[5mC]*eT*e[5mC]*eG) [compound 407898] was 49

Note to self: % Inhibition recorded for 407903 (antisense e[5mC]*e[5mC]*eG*e[5mC]*eG*dG*dA*dG*dA*d[5mC]*d[5mC]*dA*d[5mC]*d[5mC]*d[5mC]*eA*eG*eA*eT*eG) [compound 407903] was 98

Note to self: % Inhibition recorded for 407612 (antisense eA*eG*eA*eT*e[5mC]*dA*dG*d[5mC]*dT*dG*dG*dT*d[5mC]*dA*dT*e[5mC]*e[5mC]*eT*eT*eG) [compound 407612] was 82

Note to self: % Inhibition recorded for 407910 (antisense eA*eG*eT*e[5mC]*e[5mC]*dT*dT*dG*d[5mC]*dT*dG*d[5mC]*d[5mC]*dA*dT*e[5mC]*e[5mC]*eG*eA*eG) [compound 407910] was 86

Note to self: % Inhibition recorded for 407902 (antisense e[5mC]*eA*e[5mC]*e[5mC]*e[5mC]*dA*dG*dA*dT*dG*dG*dT*dG*dT*dT*eG*eA*eT*e[5mC]*eA) [compound 407902] was 86

Note to self: % Inhibition recorded for 407597 (antisense eT*eG*eT*eT*eG*dA*d[5mC]*dA*dT*dT*d[5mC]*d[5mC]*d[5mC]*d[5mC]*dA*eT*eG*eG*eG*eA) [compound 407597] was 39

Note to self: % Inhibition recorded for 407909 (antisense e[5mC]*e[5mC]*eA*eT*e[5mC]*d[5mC]*dG*dA*dG*dT*dA*dG*d[5mC]*d[5mC]*dG*eG*e[5mC]*eA*e[5mC]*eA) [compound 407909] was 77

Note to self: % Inhibition recorded for 407939 (antisense eT*eG*e[5mC]*eA*eG*d[5mC]*d[5mC]*d[5mC]*dG*dG*d[5mC]*dA*d[5mC]*d[5mC]*d[5mC]*eA*eG*e[5mC]*eG*eA) [compound 407939] was 93

Note to self: % Inhibition recorded for 407922 (antisense eT*e[5mC]*eG*eA*e[5mC]*dG*d[5mC]*dA*dG*d[5mC]*d[5mC]*dT*dT*dG*dG*e[5mC]*eT*eT*eT*e[5mC]) [compound 407922] was 82

Note to self: % Inhibition recorded for 407629 (antisense eT*e[5mC]*eA*eG*eT*dG*dA*dG*dG*dA*d[5mC]*d[5mC]*dA*d[5mC]*dG*eG*eG*e[5mC]*eT*eG) [compound 407629] was 34

Note to self: % Inhibition recorded for 407651 (antisense eA*eG*e[5mC]*e[5mC]*eT*d[5mC]*dA*dA*dA*d[5mC]*dA*dT*d[5mC]*dT*dA*eT*e[5mC]*eA*eA*eA) [compound 407651] was 32

Note to self: % Inhibition recorded for 407956 (antisense eA*eA*e[5mC]*eT*eT*dG*d[5mC]*dA*dT*dT*dT*dA*dG*dT*dG*eA*eT*eG*e[5mC]*eG) [compound 407956] was 19

Note to self: % Inhibition recorded for 407636 (antisense eG*e[5mC]*eA*eG*e[5mC]*d[5mC]*d[5mC]*dT*dG*dG*d[5mC]*d[5mC]*d[5mC]*d[5mC]*dA*eG*e[5mC]*eT*eG*eA) [compound 407636] was 75

Note to self: % Inhibition recorded for 407906 (antisense eA*e[5mC]*e[5mC]*eA*e[5mC]*dG*dG*dG*d[5mC]*dT*dG*dG*dT*dG*d[5mC]*eA*eG*eG*e[5mC]*eG) [compound 407906] was 4

Note to self: % Inhibition recorded for 407918 (antisense e[5mC]*e[5mC]*eT*eG*eG*dT*dG*dT*dA*d[5mC]*dA*d[5mC]*d[5mC]*d[5mC]*d[5mC]*eA*eA*eA*eG*eT) [compound 407918] was 72
